Test system: HL-60(TB)
test_protocol: Antileukemic activity against human HL-60(TB) cells assessed as inhibition of tumor growth after 24 hrs
Assay type: functional, cell-based
assay_context: HL-60, 24 h
observable: pIC50
The value called pIC50 is obtained by taking minus log10 of the concentration in mol/L.

Item COc1cc(/C=C2\CN(C(=O)C(=O)N3C/C(=C\c4cc(OC)c(OC)c(OC)c4)C(=O)/C(=C/c4cc(OC)c(OC)c(OC)c4)C3)C/C(=C\c3cc(OC)c(OC)c(OC)c3)C2=O)cc(OC)c1OC with HL-60(TB) - pIC50?
7.15

Item Cc1ccc(/C=C2/CN(C(=O)CC(=O)N3C/C(=C\c4ccc(C)cc4)C(=O)/C(=C/c4ccc(C)cc4)C3)C/C(=C\c3ccc(C)cc3)C2=O)cc1 with HL-60(TB) - pIC50?
6.64

Item O=C1/C(=C/c2ccc(F)cc2)CN(C(=O)C(=O)N2C/C(=C\c3ccc(F)cc3)C(=O)/C(=C/c3ccc(F)cc3)C2)C/C1=C\c1ccc(F)cc1 with HL-60(TB) - pIC50?
5.95

Item O=C1/C(=C\c2ccc(O)cc2)CN(C(=O)CC(=O)N2C/C(=C\c3ccc(O)cc3)C(=O)/C(=C/c3ccc(O)cc3)C2)C/C1=C\c1ccc(O)cc1 with HL-60(TB) - pIC50?
5.76

Item COc1cc(/C=C2/CN(C(=O)CC(=O)N3C/C(=C\c4cc(OC)c(OC)c(OC)c4)C(=O)/C(=C/c4cc(OC)c(OC)c(OC)c4)C3)C/C(=C\c3cc(OC)c(OC)c(OC)c3)C2=O)cc(OC)c1OC with HL-60(TB) - pIC50?
7.40

Item N[C@@H](Cc1ccc(N(CCCl)CCCl)cc1)C(=O)O [MELPHALAN] with HL-60(TB) - pIC50?
6.42

Item O=C1/C(=C/c2ccc(Cl)cc2)CN(C(=O)C(=O)N2C/C(=C\c3ccc(Cl)cc3)C(=O)/C(=C/c3ccc(Cl)cc3)C2)C/C1=C\c1ccc(Cl)cc1 with HL-60(TB) - pIC50?
6.72

Item O=C1/C(=C\c2ccccc2)CN(C(=O)CC(=O)N2C/C(=C\c3ccccc3)C(=O)/C(=C/c3ccccc3)C2)C/C1=C\c1ccccc1 with HL-60(TB) - pIC50?
6.54

Item O=C1/C(=C\c2ccc(Cl)cc2)CN(C(=O)CC(=O)N2C/C(=C\c3ccc(Cl)cc3)C(=O)/C(=C/c3ccc(Cl)cc3)C2)C/C1=C\c1ccc(Cl)cc1 with HL-60(TB) - pIC50?
6.96

Item O=C1/C(=C\c2ccccc2)CN(CCCN2C/C(=C\c3ccccc3)C(=O)/C(=C/c3ccccc3)C2)C/C1=C\c1ccccc1 with HL-60(TB) - pIC50?
6.60
